Listing: boiling point of selected compounds
reportedProperty: boiling point (°C)

>  <compound>
CC(=O)N1CCC(=O)CC1

>  <reportedValue>
218

$$$$
>  <compound>
CCCCCCCCCCS

>  <reportedValue>
241

$$$$
>  <compound>
C=CC(C)CCCC(C)C (stereo not drawn)

>  <reportedValue>
154

$$$$
>  <compound>
Cc1ccccc1C#N

>  <reportedValue>
205

$$$$
>  <compound>
c1ccc(CCCc2ccncc2)cc1

>  <reportedValue>
322

$$$$
>  <compound>
CCCC(=O)c1ccccc1

>  <reportedValue>
228

$$$$
>  <compound>
CCOC(C)CO (stereo not drawn)

>  <reportedValue>
140

$$$$
>  <compound>
O=C(OC(=O)C(F)(F)F)C(F)(F)F

>  <reportedValue>
39.5

$$$$
>  <compound>
COC(C)OC

>  <reportedValue>
64.5

$$$$
>  <compound>
CCCCC#N

>  <reportedValue>
141

$$$$
>  <compound>
CC(C=O)=Cc1ccccc1

>  <reportedValue>
252

$$$$
>  <compound>
COc1cc(N)ccc1C

>  <reportedValue>
251

$$$$
>  <compound>
CC1CCCCC1O (stereo not drawn)

>  <reportedValue>
164

$$$$
>  <compound>
COc1cccc(F)c1

>  <reportedValue>
159

$$$$
>  <compound>
O=C(Cl)C(Cl)=C(Cl)Cl

>  <reportedValue>
158

$$$$
>  <compound>
FC(F)(Br)C(F)(F)Br

>  <reportedValue>
47.3

$$$$
>  <compound>
ClC(Cl)(Cl)C1CO1 (stereo not drawn)

>  <reportedValue>
149

$$$$
>  <compound>
ClCc1ccccc1CCl

>  <reportedValue>
240

$$$$
